Values were extracted from patent US4560690A.

# reported Kb; entries follow
Molecular target: histamine-H2 receptor (Cavia porcellus)
Construct: the heart removed and the right atria dissected free; from tissue; host or cells: guinea pig right atria (isolated, spontaneously beating)
Sequence (P47747 whole entry): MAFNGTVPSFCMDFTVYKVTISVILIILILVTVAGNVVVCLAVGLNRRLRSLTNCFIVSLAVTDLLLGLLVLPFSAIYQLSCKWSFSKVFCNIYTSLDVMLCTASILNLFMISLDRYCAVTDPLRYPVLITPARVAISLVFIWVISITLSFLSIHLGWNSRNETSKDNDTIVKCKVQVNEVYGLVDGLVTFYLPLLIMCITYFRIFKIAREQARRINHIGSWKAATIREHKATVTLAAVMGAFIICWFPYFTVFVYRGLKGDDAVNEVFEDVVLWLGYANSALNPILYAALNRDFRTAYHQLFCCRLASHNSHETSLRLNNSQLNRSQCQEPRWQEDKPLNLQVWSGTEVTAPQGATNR
Experiment: Histamine-H2 antagonist activity in isolated guinea pig right atria (pA2)
Format: cell-based, Guinea pigs
Conditions: Krebs-Henseleit buffer pH 7.4, 32°±2° C., histamine dose-response, * tested as the dihydrobromide salt, read-out: pA2 (apparent dissociation constant of the H2-receptor antagonist) (converted)

The cases that follow already have their Kb on record.
compound	system-name	Kb
CCCCCNC(N)=Nc1nc(-c2c[nH]c(C)n2)cs1 [Example 6c]	histamine-H2 receptor (Cavia porcellus)	≤ 126 nM
Cc1nc(-c2csc(N=C(N)NCCc3ccccc3)n2)c[nH]1 [Example 6m]	histamine-H2 receptor (Cavia porcellus)	≤ 63.1 nM
CCCCCCC(C)NC(=N)Nc1nc(-c2c[nH]c(C)n2)cs1 (centres unmarked) [Example 6b]	histamine-H2 receptor (Cavia porcellus)	≤ 63.1 nM
Cc1nc(-c2csc(N=C(N)NCCCc3ccccc3)n2)c[nH]1 [Example 6n]	histamine-H2 receptor (Cavia porcellus)	≤ 63.1 nM
Cc1nc(-c2csc(NC(=N)NCc3ccccc3)n2)c[nH]1 [Example 6a]	histamine-H2 receptor (Cavia porcellus)	≤ 63.1 nM

Prompt: Return reported Kb. Input compound: CCCCCCCNC(N)=Nc1nc(-c2c[nH]c(C)n2)cs1 [Example 6f]
Response: ≤ 63.1 nM

Prompt: Return reported Kb. Input compound: CCCCCCNC(N)=Nc1nc(-c2c[nH]c(C)n2)cs1 [Example 5*]
Response: ≤ 63.1 nM

Prompt: Return reported Kb. Input compound: CCCCCCCCNC(N)=Nc1nc(-c2c[nH]c(C)n2)cs1 [Example 6g]
Response: ≤ 126 nM
